- methodDescription: Cytotoxicity against human SH-SY5Y cells assessed as cell viability at 25 uM measured after 2 hrs by MTT assay relative to control
- Assay type: cell-based
- condition: read-out: Activity
propertyName: viability at 2 h, 25 µM
Please state the number and follow it with the unit.

Consider the worked cases shown below.
{"molecule": "COc1cc2c(cc1O)CCC(C)(CC(=O)N[C@@H](Cc1ccc(O)cc1)C(=O)O)O2 (stereo not given in full)", "propertyName": "viability at 2 h, 25 µM", "measuredValue": "95.5%"}
{"molecule": "COc1cc2c(cc1O)CCC(C)(CC(=O)N[C@@H](Cc1ccccc1)C(=O)O)O2 (stereo not given in full)", "propertyName": "viability at 2 h, 25 µM", "measuredValue": "100%"}
{"molecule": "COc1cc2c(cc1O)CCC(C)(CC(=O)NCCc1ccc(O)c(O)c1)O2 (stereo not given)", "propertyName": "viability at 2 h, 25 µM", "measuredValue": "100%"}

Value lookup for viability at 2 h, 25 µM; key = COc1cc2c(cc1O)CCC(C)(CC(=O)N1CCC[C@H]1C(=O)O)O2 (stereo not given in full)
100%

Can you handle COc1cc2c(cc1O)CCC(C)(CC(N)=O)O2 (stereo not given) next?
83.6%

====

- methodDescription: Cytotoxicity against human SH-SY5Y cells assessed as cell viability at 50 uM measured after 2 hrs by MTT assay relative to control
- Format: cell-based
- condition: read-out: Activity
propertyName: viability at 2 h, 50 µM (%)
Quick reminder: number only, in %, skip the unit.

Examples from the recorded data:
{"compound": "COc1cc2c(cc1O)CCC(C)(CCNC(=O)/C=C(C)/C=C/C=C(C)/C=C/C1=C(C)CCCC1(C)C)O2 (stereo unspecified)", "propertyName": "viability at 2 h, 50 µM", "measuredValue": 97.4}
{"compound": "COc1cc2c(cc1O)CCC(C)(CC(=O)N1CCC[C@H]1C(=O)O)O2 (stereo partly specified)", "propertyName": "viability at 2 h, 50 µM", "measuredValue": 100}
{"compound": "COc1cc2c(cc1O)CCC(C)(CC(=O)N[C@@H](Cc1c[nH]c3ccccc13)C(=O)O)O2 (stereo partly specified)", "propertyName": "viability at 2 h, 50 µM", "measuredValue": 95.2}
{"compound": "COc1cc2c(cc1O)CCC(C)(CC(=O)N[C@@H](CCC(N)=O)C(=O)O)O2 (stereo partly specified)", "propertyName": "viability at 2 h, 50 µM", "measuredValue": 100}
{"compound": "COc1cc2c(cc1O)CCC(C)(CC(N)C(=O)O)O2 (stereo unspecified)", "propertyName": "viability at 2 h, 50 µM", "measuredValue": 100}

// below: viability at 2 h, 50 µM requested for another compound
Item under review: COc1cc2c(cc1O)CCC(C)(CC(N)=O)O2 (stereo unspecified) . Reported viability at 2 h, 50 µM?
74.9

====

Form field: viability at 24 h, 100 µM (one value per entry).
- methodDescription: Cytotoxicity against human SH-SY5Y cells assessed as cell viability at 100 uM measured after 24 hrs by MTT assay relative to control
- Type: cell-based
- condition: read-out: Activity
I only need the number, in %, no unit after it.

Below, each entry is followed by its recorded viability at 24 h, 100 µM result.
{"compound": "COc1cc2c(cc1O)CCC(C)(CC(=O)N[C@H](C(=O)O)C(C)C)O2 (stereo not given in full)", "viability at 24 h, 100 µM (%)": 61}
{"compound": "COc1cc2c(cc1O)CCC(C)(C)O2", "viability at 24 h, 100 µM (%)": 96.1}

Query (compound): COc1cc2c(cc1O)CCC(C)(CC(N)C(=O)O)O2 (stereo not given) ; field requested: viability at 24 h, 100 µM
60.1

Try this compound too: COc1cc2c(cc1O)CCC(C)(CCNC(=O)/C=C(C)/C=C/C=C(C)/C=C/C1=C(C)CCCC1(C)C)O2 (stereo not given)
47.9

Now this one: COc1cc2c(cc1O)CCC(C)(CC(=O)N[C@@H](C)C(=O)O)O2 (stereo not given in full)
68.5

====

- methodDescription: Cytotoxicity against human SH-SY5Y cells assessed as cell viability at 100 uM measured after 2 hrs by MTT assay relative to control
- Type: cell-based
- condition: read-out: Activity
propertyName: viability at 2 h, 100 µM (%)
Reply with just the number (in %).

// worked examples, viability at 2 h, 100 µM included
{"molecule": "COc1cc2c(cc1O)CCC(C)(CC(=O)N[C@@H](C)C(=O)O)O2 (stereo not given in full)", "measuredValue": 70.1}
{"molecule": "Cc1c(C)c2c(c(C)c1O)CCC(C)(C(=O)O)O2 (stereo not given) [TROLOX]", "measuredValue": 86.5}
{"molecule": "COc1cc2c(cc1O)CCC(C)(CC(=O)N1CCC[C@H]1C(=O)O)O2 (stereo not given in full)", "measuredValue": 78.8}

Would you kindly share the measured viability at 2 h, 100 µM for COc1cc2c(cc1O)CCC(C)(CCNC(C)=O)O2 (stereo not given) ?
66.6

Similarly, COc1cc2c(cc1O)CCC(C)(CCNC(=O)C[C@H]1OC(O)[C@H](O)[C@@H](O)[C@@H]1O)O2 (stereo not given in full) ?
77.6

====

- methodDescription: Cytotoxicity against human SH-SY5Y cells assessed as cell viability at 0.8 uM measured after 2 hrs by MTT assay relative to control
- Format: cell-based
- condition: read-out: Activity
Catalogue of viability at 2 h, 0.8 µM readings, one per entry.

Recorded viability at 2 h, 0.8 µM, per entry:
{"compound": "COc1cc2c(cc1O)CCC(C)(CCNC(=O)C[C@H]1OC(O)[C@H](O)[C@@H](O)[C@@H]1O)O2 (stereo not given in full)", "propertyName": "viability at 2 h, 0.8 µM", "measuredValue": "88.9%"}
{"compound": "COc1cc2c(cc1O)CCC(C)(CC(=O)N[C@@H](C)C(=O)O)O2 (stereo not given in full)", "propertyName": "viability at 2 h, 0.8 µM", "measuredValue": "87.6%"}
{"compound": "COc1cc2c(cc1O)CCC(C)(CC(=O)N[C@@H](Cc1ccc(O)cc1)C(=O)O)O2 (stereo not given in full)", "propertyName": "viability at 2 h, 0.8 µM", "measuredValue": "92.2%"}
{"compound": "COc1cc2c(cc1O)CCC(C)(C)O2", "propertyName": "viability at 2 h, 0.8 µM", "measuredValue": "98.5%"}

What does the data say about its viability at 2 h, 0.8 µM? Entry: COc1cc2c(cc1O)CCC(C)(CC(=O)NCCc1ccc(O)c(O)c1)O2 (stereo not given)
100%

Cc1c(C)c2c(c(C)c1O)CCC(C)(C(=O)O)O2 (stereo not given) [TROLOX] ?
93.2%

Same lookup for COc1cc2c(cc1O)CCC(C)(CC(=O)N[C@@H](CCC(N)=O)C(=O)O)O2 (stereo not given in full) , please.
92.8%

Then this compound: COc1cc2c(cc1O)CCC(C)(CC(=O)O)O2 (stereo not given)
100%

Further, for COc1cc2c(cc1O)CCC(C)(CCNC(=O)/C=C(C)/C=C/C=C(C)/C=C/C1=C(C)CCCC1(C)C)O2 (stereo not given) ?
87.4%

Consider next the compound COc1cc2c(cc1O)CCC(C)(CC(=O)N[C@@H](Cc1c[nH]c3ccccc13)C(=O)O)O2 (stereo not given in full) in the same way.
94.8%

====

- methodDescription: Cytotoxicity against human SH-SY5Y cells assessed as cell viability at 6.3 uM measured after 24 hrs by MTT assay relative to control
- Assay type: cell-based
- condition: read-out: Activity
propertyName: viability at 24 h, 6.3 µM (%)
Report the figure in % without appending any unit label.

{"molecule": "COc1cc2c(cc1O)CCC(C)(CCNC(C)=O)O2 (stereo unspecified)", "viability at 24 h, 6.3 µM / %": 87.8}
{"molecule": "COc1cc2c(cc1O)CCC(C)(CC(=O)N[C@@H](CCC(N)=O)C(=O)O)O2 (stereo partly specified)", "viability at 24 h, 6.3 µM / %": 84}
{"molecule": "COc1cc2c(cc1O)CCC(C)(CCNC(=O)C[C@H]1OC(O)[C@H](O)[C@@H](O)[C@@H]1O)O2 (stereo partly specified)", "viability at 24 h, 6.3 µM / %": 87.2}
{"molecule": "COc1cc2c(cc1O)CCC(C)(C)O2", "viability at 24 h, 6.3 µM / %": 98}
{"molecule": "COc1cc2c(cc1O)CCC(C)(CC(N)C(=O)O)O2 (stereo unspecified)", "viability at 24 h, 6.3 µM / %": 100}
{"molecule": "COc1cc2c(cc1O)CCC(C)(CC(=O)O)O2 (stereo unspecified)", "viability at 24 h, 6.3 µM / %": 100}

Entry COc1cc2c(cc1O)CCC(C)(CC(=O)N[C@@H](C)C(=O)O)O2 (stereo partly specified) has what viability at 24 h, 6.3 µM?
94.6

Try the molecule COc1cc2c(cc1O)CCC(C)(CCNC(=O)/C=C(C)/C=C/C=C(C)/C=C/C1=C(C)CCCC1(C)C)O2 (stereo unspecified)
100

Subsequent entry: COc1cc2c(cc1O)CCC(C)(CC(=O)N1CCC[C@H]1C(=O)O)O2 (stereo partly specified)
100

Now give it for COc1cc2c(cc1O)CCC(C)(CC(=O)N[C@@H](Cc1ccc(O)cc1)C(=O)O)O2 (stereo partly specified) too.
83.3

And COc1cc2c(cc1O)CCC(C)(CC(=O)N[C@H](C(=O)O)C(C)C)O2 (stereo partly specified) ?
82

Here is the next molecule: COc1cc2c(cc1O)CCC(C)(CC(=O)N[C@@H](Cc1c[nH]c3ccccc13)C(=O)O)O2 (stereo partly specified)
94.9

Moving on to the next molecule: Cc1c(C)c2c(c(C)c1O)CCC(C)(C(=O)O)O2 (stereo unspecified)
83.7
